- measurementProtocol: small-molecule binders of probe aLefty1, primary screen, biochemical, small-molecule microarray, 635/667 nm fluorescence (AID 1153);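 also: score merges spot fluorescence with signal-to-noise ratio from the scanned slide images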
- conditionSummary: higher = more signal
composite z-score overview
Please reply with the number alone, leaving off any unit.

Query: Requested read-out: composite z-score. Entry: "CN(C)C(=O)[C@]1(Cc2ccccc2)N=C(c2ccc(OCCCO)cc2)O[C@@H]1c1ccccc1"
Reply: -0.13

Query: Requested read-out: composite z-score. Entry: "[N-]=[N+]=NCc1ccccc1[C@H]1OC(c2ccc(OCCCO)cc2)=N[C@@]1(Cc1ccccc1)C(=O)N1CCOCC1"
Reply: 0.321

Query: Requested read-out: composite z-score. Entry: "COC(=O)[C@@]1(Cc2ccccc2)[C@@H]2[C@@H](CC(=O)[C@H]2CC(=O)C(=O)N(C)C)CN1C(=O)c1ccccc1"
Reply: 0.0811

New cases:
Query: Requested read-out: composite z-score. Entry: "C[N+](C)(C)CCCCCCNC(=O)[C@H]1C[C@H]2C(=O)NCC(=O)N2[C@H]1c1cccc(OCCO)c1"
Reply: -0.259

Query: Requested read-out: composite z-score. Entry: "CC(C)[Si](C#CCCCC#N)(O[C@H](c1ccccc1)c1cn([C@H](C)c2ccccc2)nn1)C(C)C"
Reply: -0.0984

Query: Requested read-out: composite z-score. Entry: "COCCOC(=O)N1C(=O)[C@@]2(c3cc(C#CC4(O)CCCCCC4)ccc31)[C@H](c1ccccc1OCCO)N1[C@H](c3ccccc3)[C@H](c3ccccc3)OC(=O)[C@H]1[C@@H]2C(=O)N1CCCCCCC1"
Reply: 2.49

----------
- measuredTarget: Torsin-1A-interacting protein 1 (Homo sapiens)
- measurementProtocol: LAP1 binders from COS7 cell lysate, primary screen, small-molecule microarray, 635/667 nm fluorescence (AID 1116)
- conditionSummary: COS7-hLAP1 lysate binding, 635 nm fluorescence, higher = more signal
assayEndpoint: composite z-score
Please reply with the number alone, leaving off any unit.

Some solved cases for reference:
Query: Query for Torsin-1A-interacting protein 1 (Homo sapiens): what composite z-score does the record show for "[N-]=[N+]=NCc1ccccc1[C@@H]1OC(c2ccc(OCCCO)cc2)=N[C@]1(Cc1ccccc1)C(=O)NCc1ccccc1" ?
Reply: 1.12

Query: Query for Torsin-1A-interacting protein 1 (Homo sapiens): what composite z-score does the record show for "O=C1O[C@@H](c2ccccc2)[C@@H](c2ccccc2)N2[C@@H](c3ccc(OCCO)cc3)[C@]3(C(=O)Nc4ccc(C#CCCO)cc43)[C@@H](C(=O)Nc3nc4ccccc4s3)[C@H]12" ?
Reply: 0.82

New cases:
Query: Query for Torsin-1A-interacting protein 1 (Homo sapiens): what composite z-score does the record show for "COCCOC(=O)N1C(=O)[C@@]2(c3cc(C#CC4(O)CCCCCC4)ccc31)[C@H](c1ccccc1OCCO)N1[C@H](c3ccccc3)[C@H](c3ccccc3)OC(=O)[C@H]1[C@@H]2C(=O)N1CCCCCCC1" ?
Reply: 3.51

----------
- measurementProtocol: small-molecule microarray binders of probe aEGFR, primary screen, biochemical, biotinylated probe, 635/667 nm fluorescence (AID 1097);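 also: probe is a biotinylated anti-EGFR antibody binding compounds printed on slides; score combines fluorescence near 667 nm and signal to noise of each spot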
- conditionSummary: higher = more signal
Short version: composite z-score at least -0.02 is fulfilled, less is not fulfilled.

Look over these answered cases.
Query: # bool: composite z-score of CC(C)C[C@@H]1NC(=O)C([C@@H](C)OCc2ccccc2)NC(=O)[C@@]23C(=O)N[C@@H](Cc4ccccc4)C2[C@H](C)[C@@]2(C)O[C@H]2C3/C=C/CC/C=C/CNC1=O (stereo partly drawn) >= -0.02
Reply: not fulfilled

Query: # bool: composite z-score of "NCCCC[C@@H]1NC(=O)[C@H]2C[C@@H](C(=O)O)[C@@H](c3cccc(OCCO)c3)N2C1=O" >= -0.02
Reply: fulfilled

Query: # bool: composite z-score of "COc1ccc(CCNC(=O)[C@@]2(Sc3ccc(C)cc3)CC(=O)N(Cc3cc(C(F)(F)F)cc(C(F)(F)F)c3)[C@@H]2c2ccc(CO)cc2)cc1" >= -0.02
Reply: not fulfilled

Query: # bool: composite z-score of CC=CC(O)C1C=CC2C(=O)N(C)C(=O)C2N1NC(=O)OC(C)(C)C (stereo not drawn) >= -0.02
Reply: not fulfilled

Next up:
Query: # bool: composite z-score of "CCOC(=O)C1=C(C(=O)OCC)N(S(=O)(=O)CC[Si](C)(C)C)[C@H](c2ccccc2)CC1" >= -0.02
Reply: fulfilled
